Target: OTU domain-containing protein 3 (Homo sapiens) (UniProt Q5T2D3)
Sequence (Q5T2D3 whole entry, looked up, the tested form may be a part): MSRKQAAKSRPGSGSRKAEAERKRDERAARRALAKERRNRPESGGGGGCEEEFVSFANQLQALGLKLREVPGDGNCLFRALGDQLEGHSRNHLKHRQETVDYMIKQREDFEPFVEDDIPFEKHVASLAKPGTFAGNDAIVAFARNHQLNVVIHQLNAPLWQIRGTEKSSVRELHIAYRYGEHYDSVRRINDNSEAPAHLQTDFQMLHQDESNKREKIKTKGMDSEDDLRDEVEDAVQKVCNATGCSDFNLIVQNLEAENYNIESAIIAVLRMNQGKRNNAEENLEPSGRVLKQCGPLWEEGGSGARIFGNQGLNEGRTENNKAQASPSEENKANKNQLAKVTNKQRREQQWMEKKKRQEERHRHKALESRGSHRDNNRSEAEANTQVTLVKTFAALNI
Assay: Validation of screening hits, potency titration, in vitro enzymatic, OTU domain-containing protein 3 DUB inhibitors (AID 1645868)
Details: purified OTUD3, ubiquitin-rhodamine cleavage fluorescence, 2 h
The source made the active and inactive calls.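 Rule for the calls: active = maximal percent inhibition of the deubiquitinase OTUD3 of at least 30% across the tested doses; inactive = the rest.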
Outcome field: choose from active, inactive

compound	tgt	class
CC(C)OC(=O)c1cc2c(ccn2-c2ccc(F)cc2)n1CC(=O)NC1CCCCC1	OTU domain-containing protein 3 (Homo sapiens) (UniProt Q5T2D3)	inactive

We next turn to a different compound, shown below.
## Task Identify the outcome logged in this assay for the compound shown: COc1ccc(-c2nnc(SCc3ccccc3C#N)o2)c(OC)c1
## Result inactive

---

Molecular target: OTU domain-containing protein 3 (Homo sapiens)
Experiment: Validation of screening hits, potency titration, in vitro enzymatic, OTU domain-containing protein 3 DUB inhibitors (AID 1645868)
Conditions: purified OTUD3, ubiquitin-rhodamine cleavage fluorescence, 2 h
Activity calls are given as the source filed them.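 The calls were made as follows: active = maximal percent inhibition of the deubiquitinase OTUD3 of at least 30% across the tested doses; inactive = the rest.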
Outcome field: choose from active, inactive

Field: example entries. Status: answers known.
compound	class
Cc1ccc(C)c(Nc2cc(C)nc3nc(-c4ccco4)nn23)c1	inactive
O=C(NCc1ccc(-c2nc3cnccc3o2)cc1)c1cc2ccccc2o1	inactive

## Task Identify the outcome logged in this assay for the compound shown: CS(=O)(=O)n1nc(NCc2ccc(F)cc2)nc1NCc1ccc(F)cc1
## Result inactive

## Task Identify the outcome logged in this assay for the compound shown: CN(C)S(=O)(=O)N1CCCC2(C1)Nc1cccnc1NC2=NC1CCCC1 (stereo unspecified)
## Result inactive

## Task Identify the outcome logged in this assay for the compound shown: Cc1ccc(C)c(S(=O)(=O)N2CCC3(CC2)NC(=O)c2ccccc2N3)c1
## Result inactive

## Task Identify the outcome logged in this assay for the compound shown: Fc1cnc(N2CC[C@H]3CO[C@H](CNc4ncccn4)[C@H]3C2)nc1
## Result inactive

## Task Identify the outcome logged in this assay for the compound shown: O=C(Nc1cccc(F)c1)C1CCCN(S(=O)(=O)N2CCCCCC2)C1 (stereo unspecified)
## Result inactive

## Task Identify the outcome logged in this assay for the compound shown: COc1ccccc1-c1nc(-c2nnn(Cc3ccc(C)cc3)c2C)no1
## Result inactive

## Task Identify the outcome logged in this assay for the compound shown: CCC(C)NC(=O)Cn1c(=O)n(-c2ccccc2)c(=O)c2ccc(C(=O)NCc3ccco3)cc21 (stereo unspecified)
## Result active

---

Biological target: OTU domain-containing protein 3 (Homo sapiens)
Test: Validation of screening hits, potency titration, in vitro enzymatic, OTU domain-containing protein 3 DUB inhibitors (AID 1645868);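 active = maximal percent inhibition of the deubiquitinase OTUD3 of at least 30% across the tested doses; inactive = the rest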
Conditions: purified OTUD3, ubiquitin-rhodamine cleavage fluorescence, 2 h
Outcome field: choose from Y (active), N (inactive)

compound	class
Cc1ccc(NC(=O)/C=C/c2cccc(C(F)(F)F)c2)c(O)c1	Y

## Task Identify the outcome logged in this assay for the compound shown: COc1ccc(NC(=O)c2cc(-c3cccnc3)n[nH]2)cc1Cl
## Result Y

---

Molecular target: OTU domain-containing protein 3 (Homo sapiens) (UniProt Q5T2D3)
Test: Validation of screening hits, potency titration, in vitro enzymatic, OTU domain-containing protein 3 DUB inhibitors (AID 1645868)
Conditions: purified OTUD3, ubiquitin-rhodamine cleavage fluorescence, 2 h
Activity calls are given as the source filed them.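 How the source made its calls: active means maximal percent inhibition of the deubiquitinase OTUD3 of at least 30% across the tested doses; inactive means the rest.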
Outcome field: choose from active, inactive

Field: example entries. Status: answers known.
molecule	class
Cc1cccc(C(=O)Nc2ccccc2Sc2nc3c(c(=O)n(C)c(=O)n3C)n2C)c1	inactive
O=C(c1ccc2ncccc2c1)N1CCC2(C1)Nc1cccnc1NC2=NC1CCCC1 (stereo not given)	inactive
Cc1nnc(Sc2cc(C(=O)NCCN3CCCC3)c3ccccc3n2)s1	inactive
Cc1ccc2nc(CNc3ccc(F)cc3C)cc(=O)n2c1	inactive

## Task Identify the outcome logged in this assay for the molecule shown: Cc1noc(-c2ccc(N3CCCC(C(=O)NCc4ccc(F)cc4)C3)nc2)n1 (stereo not given)
## Result active

---

Target: OTU domain-containing protein 3 (Homo sapiens) (UniProt Q5T2D3)
Assay: Validation of screening hits, potency titration, in vitro enzymatic, OTU domain-containing protein 3 DUB inhibitors (AID 1645868)
Settings: purified OTUD3, ubiquitin-rhodamine cleavage fluorescence, 2 h
Active and inactive are the calls of the source.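 Rule for the calls: active = maximal percent inhibition of the deubiquitinase OTUD3 of at least 30% across the tested doses; inactive = the rest.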
experimentalReadout: IC50

Example entries begin here.
molecule	tgt	IC50
Cc1nn(Cc2ccccc2)c(C)c1C(=O)NC1CCCc2ccccc21 (stereo not given)	OTU domain-containing protein 3 (Homo sapiens) (UniProt Q5T2D3)	> 50 µM (inactive)
Cc1cc(-c2cnc(N(C)C)nc2-c2ccc(CNC(=O)Cc3ccc(F)cc3)cc2)on1	OTU domain-containing protein 3 (Homo sapiens) (UniProt Q5T2D3)	> 50 µM (inactive)
Fc1ccc(Cn2ccc(-c3cnc(-c4ccccc4)s3)n2)cc1	OTU domain-containing protein 3 (Homo sapiens) (UniProt Q5T2D3)	> 50 µM (inactive)
CCOc1ccccc1C(=O)NCC(=O)OC(C(=O)c1c[nH]c2ccccc12)c1ccccc1 (stereo not given)	OTU domain-containing protein 3 (Homo sapiens) (UniProt Q5T2D3)	> 50 µM (inactive)
Cc1nn(C)c2c1[C@@H](c1ccc(F)c(Br)c1)[C@H](NC(=O)c1ccccc1)C(=O)N2	OTU domain-containing protein 3 (Homo sapiens) (UniProt Q5T2D3)	> 50 µM (inactive)

Hello, I would appreciate it if you could give IC50 for each entry below.
1. CC(=O)c1ccc(N2C(=O)N(Cc3cccc([N+](=O)[O-])c3)c3ccccc3S2(=O)=O)cc1
2. CCn1cnc2ccc(C(=O)NC3CC3)cc2c1=O

## Result
["> 50 µM (inactive)", "> 50 µM (inactive)"]

---

Target: OTU domain-containing protein 3 (Homo sapiens) (UniProt Q5T2D3)
Assay: Validation of screening hits, potency titration, in vitro enzymatic, OTU domain-containing protein 3 DUB inhibitors (AID 1645868)
Details: purified OTUD3, ubiquitin-rhodamine cleavage fluorescence, 2 h
Activity calls are given as the source filed them.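 How the source made its calls: active means maximal percent inhibition of the deubiquitinase OTUD3 of at least 30% across the tested doses; inactive means the rest.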
Assignment: determine reported IC50 for the given compounds.

Example entries begin here.
compound	IC50
O=C(CCCCn1c(=O)c2ccccc2n(Cc2ccccc2F)c1=O)NCCc1ccccc1	17 µM
N#Cc1cc(C(=O)c2ccc(Cl)cc2)c[nH]1	> 50 µM (inactive)
COc1ccccc1NS(=O)(=O)c1ccc2oc(SCC(=O)c3ccccc3)nc2c1	> 50 µM (inactive)
COc1ccc(CNc2nn3c(-c4cncc(OC)c4)cnc3s2)cc1	> 50 µM (inactive)
Cc1ccccc1C(=O)c1ccc(C(=O)NC2CCCCCC2)[nH]1	20.7 µM
Nc1c(-c2nc(-c3ccc4c(c3)OCO4)cs2)nnn1-c1ccccc1	> 50 µM (inactive)

Hello, I would appreciate it if you could give IC50 for each entry below.
1. COc1cc(O)c2c(O)c3c(cc2c1)CC(C)OC3=O (stereo unspecified)
2. COc1ccc(NC(=O)CSc2nnc(Cc3cccc4ccccc34)n2C)cc1
3. COc1ccc(-c2cc3nc([C@H](C)NC(=O)Cc4cccc(F)c4)nn3cn2)cc1
4. CCC(=O)Nc1ccc(-c2nc(Cn3cc(C)cn3)c(C)o2)cc1
5. N#Cc1c(SCCO)nc(N2CCCC2)c2c1CCCC2

## Result
1: > 50 µM (inactive); 2: > 50 µM (inactive); 3: 15.8 µM; 4: > 50 µM (inactive); 5: > 50 µM (inactive)

---

Molecular target: OTU domain-containing protein 3 (Homo sapiens) (UniProt Q5T2D3)
Experiment: Validation of screening hits, potency titration, in vitro enzymatic, OTU domain-containing protein 3 DUB inhibitors (AID 1645868)
Conditions: purified OTUD3, ubiquitin-rhodamine cleavage fluorescence, 2 h
Calls of active or inactive are those of the source.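 Rule for the calls: active = maximal percent inhibition of the deubiquitinase OTUD3 of at least 30% across the tested doses; inactive = the rest.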
experimentalReadout: IC50

Hello, I would appreciate it if you could give IC50 for each entry below.
1. N#Cc1cccc(S(=O)(=O)N2CCc3nc4ccccc4n3CC2)c1
2. CCc1ccc(C2c3c(oc4ccccc4c3=O)C(=O)N2c2nncs2)cc1 (stereo not given)
3. CCOC(=O)c1sc2nc(CC(=O)OC)nc(NCc3ccco3)c2c1C

## Result
["28.3 µM", "> 50 µM (inactive)", "> 50 µM (inactive)"]

---

Target: OTU domain-containing protein 3 (Homo sapiens) (UniProt Q5T2D3)
Experiment: Validation of screening hits, potency titration, in vitro enzymatic, OTU domain-containing protein 3 DUB inhibitors (AID 1645868)
Conditions: purified OTUD3, ubiquitin-rhodamine cleavage fluorescence, 2 h
The source made the active and inactive calls.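 Rule for the calls: active = maximal percent inhibition of the deubiquitinase OTUD3 of at least 30% across the tested doses; inactive = the rest.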
Assignment: determine reported IC50 for the given molecules.

Example entries begin here.
molecule	tgt	IC50
COc1ccc(OC)c(-c2cn3ccn(-c4ccc5c(c4)CCC5)c(=O)c3n2)c1	OTU domain-containing protein 3 (Homo sapiens) (UniProt Q5T2D3)	> 50 µM (inactive)
Nc1c(-c2ccc(Cl)cc2)cnc2nc(Sc3ncc(C(F)(F)F)cc3Cl)nn12	OTU domain-containing protein 3 (Homo sapiens) (UniProt Q5T2D3)	> 50 µM (inactive)
CC(=O)c1oc2nc3c(c(-c4ccc(Cl)cc4)c2c1N)CCc1ccccc1-3	OTU domain-containing protein 3 (Homo sapiens) (UniProt Q5T2D3)	> 50 µM (inactive)
O=C(Nc1ccc(SCc2nnc(-c3ccccc3)o2)cc1)C1CC1	OTU domain-containing protein 3 (Homo sapiens) (UniProt Q5T2D3)	> 50 µM (inactive)
O=C(Nc1ccc(NS(=O)(=O)c2ccc3c4c(cccc24)CC3)cc1)c1ccccc1	OTU domain-containing protein 3 (Homo sapiens) (UniProt Q5T2D3)	> 50 µM (inactive)
COc1ccc(C(=O)Nc2n[nH]c(C)c2-c2cccc(C)c2)c(OC)c1	OTU domain-containing protein 3 (Homo sapiens) (UniProt Q5T2D3)	28.7 µM
CN(C)Cc1ccc(C(=O)Nc2ccc(-c3nccs3)cc2)cc1	OTU domain-containing protein 3 (Homo sapiens) (UniProt Q5T2D3)	> 50 µM (inactive)
Cc1ccccc1Cn1cc(SCC(=O)Nc2ccc3c(c2)OCCO3)c2ccccc21	OTU domain-containing protein 3 (Homo sapiens) (UniProt Q5T2D3)	> 50 µM (inactive)
O=C1NCc2c1c1c3ccccc3[nH]c1c1[nH]c3ccccc3c21	OTU domain-containing protein 3 (Homo sapiens) (UniProt Q5T2D3)	> 50 µM (inactive)
NC(=O)c1nc(-c2cccnc2)nc2c1[nH]c(=O)n2-c1ccc2c(c1)OCO2	OTU domain-containing protein 3 (Homo sapiens) (UniProt Q5T2D3)	> 50 µM (inactive)

Hello, I would appreciate it if you could give IC50 for each entry below.
1. Cc1ccccc1NC(=O)c1ccc(N2CCCCC2)nn1
2. COc1cccc2c1NC(=O)C21CCN(C(=O)Nc2cccc3ccccc23)CC1
3. Cc1noc(C)c1COc1cccc(C(=O)Nc2cc(Cl)ccc2-n2cncn2)c1
4. COc1ccc(OC)c(NC(=O)C2Oc3ccccc3NC2=O)c1 (stereo unspecified)
5. Cn1cccc1C(=O)N1CCCC2(C1)Nc1cccnc1NC2=NC1CCCC1 (stereo unspecified)

## Result
1: > 50 µM (inactive); 2: > 50 µM (inactive); 3: > 50 µM (inactive); 4: > 50 µM (inactive); 5: > 50 µM (inactive)

Hello, I would appreciate it if you could give IC50 for each entry below.
1. Cc1ccc(-c2nc(N3CCCC(O)C3)ncc2-c2cnccn2)s1 (stereo unspecified)
2. COc1ccc(CCNC(=O)CCCn2c(=O)c3ccccc3n(CC(=O)OCc3ccccc3)c2=O)cc1OC
3. Cc1ccc(NC(=O)c2ccc(N3CCOCC3)nn2)cc1F
4. O=C(NCc1ccccc1)c1ccc(-c2ccc(N3CCCC3)nn2)cc1
5. O=S(=O)(c1cccc2cccnc12)N(CCc1ccccc1)C1CCN(CCc2ccc(Cl)cc2)CC1

## Result
["> 50 µM (inactive)", "21.8 µM", "> 50 µM (inactive)", "> 50 µM (inactive)", "> 50 µM (inactive)"]

## Task # query: IC50 of entry O=C(/C=C/c1ccco1)c1cccc([N+](=O)[O-])c1
## Result 23.2 µM
